- Tested on: 201T
- measurement protocol: relative viability (nuclei count vs DMSO), 5 days (fraction); higher = more cells survive
- reported conditions: first compound 0.5 µM
Kindly supply the reported relative viability values for the records listed here.
Simply state the number, no unit and no words.

Quick check: relative viability of Nc1ccn([C@@H]2O[C@H](CO)[C@@H](O)[C@@H]2O)c(=O)n1 [Cytarabine] + Cc1nc(Nc2ncc(C(=O)Nc3c(C)cccc3Cl)s2)cc(N2CCN(CCO)CC2)n1 [Dasatinib] (partner 0.075 µM) ? 0.501

Follow-up entry: COc1cc2nccc(Oc3ccc(NC(=O)Nc4cc(C)on4)c(Cl)c3)c2cc1OC [Tivozanib] + N=C(N)NC(=N)NCCc1ccccc1 [Phenformin] (partner 250 µM) 0.469

Follow-up entry: COc1cc2nccc(Oc3ccc(NC(=O)Nc4cc(C)on4)c(Cl)c3)c2cc1OC [Tivozanib] + Cc1nc(Nc2ncc(C(=O)Nc3c(C)cccc3Cl)s2)cc(N2CCN(CCO)CC2)n1 [Dasatinib] (partner 0.075 µM) 0.553

Follow-up entry: Nc1ccn([C@@H]2O[C@H](CO)[C@@H](O)[C@@H]2O)c(=O)n1 [Cytarabine] + CS(=O)(=O)CCNCc1ccc(-c2ccc3ncnc(Nc4ccc(OCc5cccc(F)c5)c(Cl)c4)c3c2)o1 [Lapatinib] (partner 2 µM) 0.919

Follow-up entry: Nc1ccn([C@@H]2O[C@H](CO)[C@@H](O)[C@@H]2O)c(=O)n1 [Cytarabine] + CC1(C)CCC(c2ccc(Cl)cc2)=C(CN2CCN(c3ccc(C(=O)NS(=O)(=O)c4ccc(N[C@H](CCN5CCOCC5)CSc5ccccc5)c(S(=O)(=O)C(F)(F)F)c4)cc3)CC2)C1 [Navitoclax] (partner 0.5 µM) 1.14
